Just for reference, patent US11242361B2 is where these values come from.

Molecular target: USP14 (Homo sapiens (Human), UniProt P54578)
Sequence (P54578 whole entry, looked up): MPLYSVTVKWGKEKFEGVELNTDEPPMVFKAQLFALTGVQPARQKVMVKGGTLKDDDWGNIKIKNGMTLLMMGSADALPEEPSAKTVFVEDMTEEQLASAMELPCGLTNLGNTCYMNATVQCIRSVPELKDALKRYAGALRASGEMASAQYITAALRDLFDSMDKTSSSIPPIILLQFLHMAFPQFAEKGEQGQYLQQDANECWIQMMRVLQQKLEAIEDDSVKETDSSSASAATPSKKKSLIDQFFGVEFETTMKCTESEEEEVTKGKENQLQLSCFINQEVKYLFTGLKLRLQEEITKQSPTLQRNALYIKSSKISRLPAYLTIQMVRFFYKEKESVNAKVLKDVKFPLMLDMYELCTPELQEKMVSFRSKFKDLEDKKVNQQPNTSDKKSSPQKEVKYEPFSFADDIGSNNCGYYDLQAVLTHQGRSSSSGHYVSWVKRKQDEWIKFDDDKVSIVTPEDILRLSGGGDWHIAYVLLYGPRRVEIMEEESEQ
PROPERTY NAME: IC50

Known results for compounds:
>>> df
                               entry_smiles                              study_system     result
0  Cc1c(C(=O)CN2CCC(O)CC2)c2ncc(/C=C/c3nnc(C(F)(F)F)o3)cc2n1-c1ccc(C#N)cc1  USP14 (Homo sapiens (Human), UniProt P54578)   < 500 nM
1  Cc1c(C(=O)CN2CCS(=O)(=O)CC2)c2ncc(Br)cc2n1-c1ccc(C#N)cc1  USP14 (Homo sapiens (Human), UniProt P54578)  > 5000 nM
2  Cc1c(C(=O)CN2CCCCC2)c2ncc(C#CCOC(=O)N(C)C)cc2n1-c1ccc(C#N)cc1  USP14 (Homo sapiens (Human), UniProt P54578)   < 500 nM

Now turn to the next compound.
## Input # lookup: IC50 of CCOC(=O)CNCC1CCN(CC(=O)c2c(C)n(-c3ccc(C#N)cc3)c3cc(Br)cnc23)CC1
## Output 500 to 5000 nM

====

The following are reported pIC50 results, target or system UniProtKB P54578.
pIC50: −log10 of the molar value.

Known results for compounds:
                               entry_smiles        result
0  CCOC(=O)Cc1cnc2c(C(=O)CN3CCCCC3)c(C)n(-c3ccc(C#N)cc3)c2c1        > 6.30
1  Cc1c(C(=O)CN2CCCCC2)c2ccc(CO[Si](C)(C)C(C)(C)C)cc2n1-c1ccc(Cl)cc1  5.30 to 6.30
2  Cc1c(C(=O)CN2CCCC2)c2ccccc2n1-c1ccc(Cl)cc1        > 6.30
3  Cc1c(C(=O)CN2CCCCC2)c2ncc(Br)cc2n1-c1ccc(C#N)cc1        > 6.30
4  Cc1c(C(=O)CN2CCCCC2)c2cc(NC(=O)C(C)(C)C)ccc2n1-c1ccc(C#N)cc1        > 6.30

Batch of 3 compounds: report pIC50 for each.
1. O=C(CN1CCCCC1)c1cn(-c2ccc(Cl)cc2)c2cc(O)ccc12
2. Cc1c(C(=O)CN2CCCCC2)c2ncccc2n1-c1ccc(C#N)nc1
3. Cc1c(C(=O)CN2CCCCC2)c2cc(C#N)ccc2n1-c1ccc(C#N)cc1

## Output
< 5.30
> 6.30
> 6.30

====

Biological target: USP14 (Homo sapiens (Human))
PROPERTY NAME: IC50

>>> df
                               entry_smiles     result
0  Cc1c(C(=O)CN2CCCCC2)c2ncc(CC(=O)NC3CC3)cc2n1-c1ccc(C#N)cc1   < 500 nM
1  Cc1c(C(=O)CN2C[C@@H](C)C[C@H](C)C2)c2ncc(Br)cc2n1-c1ccc(C#N)cc1   < 500 nM
2  Cc1c(C(=O)CN2CCC(CN(C)C)CC2)c2ncc(Br)cc2n1-c1ccc(C#N)cc1   < 500 nM
3  Cc1c(C(=O)CN2CCCCC2)c2nc(F)ccc2n1-c1ccc(C#N)cc1   < 500 nM
4  CC(C)c1c(C(=O)CN2CCCCC2)c2ncccc2n1-c1ccc(C#N)cc1  > 5000 nM

Now turn to the next compound.
## Input # lookup: IC50 of Cc1c(C(=O)CN2CCCCC2)c2ccc(C#N)cc2n1-c1ccc(C#N)cc1
## Output < 500 nM
